Catalogue of compounds with associated pIC50
# Tested target: PI3Kβ (Homo sapiens)
# Sequence (P42338 whole entry): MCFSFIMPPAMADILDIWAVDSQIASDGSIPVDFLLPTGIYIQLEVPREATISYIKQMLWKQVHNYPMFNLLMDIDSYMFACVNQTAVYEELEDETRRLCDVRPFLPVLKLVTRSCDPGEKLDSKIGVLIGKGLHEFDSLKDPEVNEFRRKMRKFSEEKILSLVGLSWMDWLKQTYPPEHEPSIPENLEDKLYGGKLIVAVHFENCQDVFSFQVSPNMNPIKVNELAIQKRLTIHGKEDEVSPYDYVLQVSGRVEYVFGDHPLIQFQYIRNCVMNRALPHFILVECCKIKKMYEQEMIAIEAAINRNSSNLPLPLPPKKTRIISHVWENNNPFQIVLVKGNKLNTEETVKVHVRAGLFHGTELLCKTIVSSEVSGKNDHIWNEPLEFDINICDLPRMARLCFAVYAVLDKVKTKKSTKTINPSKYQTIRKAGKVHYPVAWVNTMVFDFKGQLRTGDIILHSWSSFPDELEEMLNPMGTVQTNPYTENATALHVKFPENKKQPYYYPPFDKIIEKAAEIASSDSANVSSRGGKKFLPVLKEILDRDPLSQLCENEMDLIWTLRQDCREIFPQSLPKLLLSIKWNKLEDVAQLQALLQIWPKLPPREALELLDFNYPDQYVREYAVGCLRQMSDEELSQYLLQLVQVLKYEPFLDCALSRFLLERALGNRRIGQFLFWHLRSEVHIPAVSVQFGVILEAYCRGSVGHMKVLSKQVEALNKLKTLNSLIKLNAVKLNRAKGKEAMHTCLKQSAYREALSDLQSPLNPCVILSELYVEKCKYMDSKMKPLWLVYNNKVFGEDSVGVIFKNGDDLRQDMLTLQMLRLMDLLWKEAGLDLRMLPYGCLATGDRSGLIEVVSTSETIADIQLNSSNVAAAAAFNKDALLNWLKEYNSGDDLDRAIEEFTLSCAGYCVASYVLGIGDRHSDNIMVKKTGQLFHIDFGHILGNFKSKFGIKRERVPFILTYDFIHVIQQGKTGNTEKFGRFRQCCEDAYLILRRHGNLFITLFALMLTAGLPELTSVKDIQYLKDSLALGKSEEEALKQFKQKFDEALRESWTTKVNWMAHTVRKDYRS
# Test details: PI3K enzyme inhibitory activity in the cell free assay (ADP-Glo Kinase Assay)
# Protocol conditions: human recombinant PI3Kβ, ATP 100 μM; read-out: PI3K beta inhibition
pIC50: −log10 of the molar value. Where a name gives a salt, the structure may show the parent alone.

[
  {
    "Compound": "CC(c1oc(=O)c2ccccc2c1-c1cccc(C(=O)NCCN(C)C)c1)n1nc(-c2cc(O)cc(F)c2)c2c(N)ncnc21 (centres unmarked) [Example 70, hydrochloride]",
    "pIC50": "6.00 to 8.00"
  },
  {
    "Compound": "CC(Nc1ncnc(N)c1C#N)c1oc(=O)c2ccccc2c1-c1cn[nH]c1 (centres unmarked) [Example 123, hydrochloride]",
    "pIC50": "6.00 to 8.00"
  },
  {
    "Compound": "CC(Nc1ncnc2[nH]cnc12)c1oc(=O)c2ccccc2c1-c1cncs1 (centres unmarked)",
    "pIC50": "< 6.00"
  },
  {
    "Compound": "CC(c1oc(=O)c2ccccc2c1C1=CCN(C(=O)C2CCN(C)CC2)CC1)n1nc(-c2cc(O)cc(F)c2)c2c(N)ncnc21 (centres unmarked) [Example 148, formate]",
    "pIC50": "6.00 to 8.00"
  },
  {
    "Compound": "CC(c1oc(=O)c2ccccc2c1C1=CCN(C)CC1)n1nc(-c2cc(O)cc(Cl)c2)c2c(N)ncnc21 (centres unmarked) [Example 154, formate]",
    "pIC50": "6.00 to 8.00"
  },
  {
    "Compound": "CC(c1oc(=O)c2ccccc2c1-c1ccc(CN2CCN(C)CC2)cc1)n1nc(-c2cc(O)cc(F)c2)c2c(N)ncnc21 (centres unmarked) [Example 139, dihydrochloride]",
    "pIC50": "< 6.00"
  },
  {
    "Compound": "CC(c1oc(=O)c2ccccc2c1C1=CCC(N)CC1)n1nc(-c2cc(O)cc(F)c2)c2c(N)ncnc21 (centres unmarked) [Example 103, hydrochloride]",
    "pIC50": "6.00 to 8.00"
  },
  {
    "Compound": "CC(c1oc(=O)c2ccccc2c1C1=CC(C)(C)NC(C)(C)C1)n1nc(-c2cncc(O)c2)c2c(N)ncnc21 (centres unmarked) [Example 145, dihydrochloride]",
    "pIC50": "6.00 to 8.00"
  },
  {
    "Compound": "CC(c1oc(=O)c2ccccc2c1-c1ccccc1)n1nc(-c2cccc3[nH]ncc23)c2c(N)ncnc21 (centres unmarked)",
    "pIC50": "< 6.00"
  },
  {
    "Compound": "Cc1ncc(-c2nn(C(C)c3oc(=O)c4ccccc4c3-c3ccccc3)c3ncnc(N)c23)cc1O (centres unmarked)",
    "pIC50": "6.00 to 8.00"
  },
  {
    "Compound": "CC(Nc1ncnc2[nH]cnc12)c1oc(=O)c2ccccc2c1-c1cnc(N)nc1 (centres unmarked)",
    "pIC50": "< 6.00"
  },
  {
    "Compound": "CC(c1oc(=O)c2ccccc2c1C1=CC2CCC(C1)N2C)n1nc(-c2cc(O)cc(F)c2)c2c(N)ncnc21 (centres unmarked) [Example 92, hydrochloride]",
    "pIC50": "6.00 to 8.00"
  },
  {
    "Compound": "CC(Nc1ncnc2[nH]cnc12)c1oc(=O)c2ccccc2c1-c1cn[nH]c1 (centres unmarked)",
    "pIC50": "6.00 to 8.00"
  },
  {
    "Compound": "CC(c1oc(=O)c2ccccc2c1-c1ccc(CN2CCCC2)cc1)n1nc(-c2cc(O)cc(F)c2)c2c(N)ncnc21 (centres unmarked) [Example 140, hydrochloride]",
    "pIC50": "6.00 to 8.00"
  }
]

Source of measurements: patent US9321776B2
